# CDK4 % Inhibition at 0.03 μM values compiled below
Target: human CDK4/cyclin D3 (Homo sapiens)
Construct: made in house; host or cells: insect cells co-infected with baculovirus vectors
Test: Inhibition of CDK4/cyclin D retinoblastoma kinase activity (Ki; % inhibition)
Type: biochemical
Conditions: at 0.03 μM

{"compound": "Nc1nc(Nc2ccc(C(=O)NCCCn3ccnc3)cc2)sc1C(=O)c1c(F)cccc1F", "CDK4 % Inhibition at 0.03 μM, %": 27}
{"compound": "CC(=O)NC1CCN(C(=O)c2ccc(Nc3nc(N)c(C(=O)c4c(F)cccc4F)s3)cc2)C1 (centres unmarked)", "CDK4 % Inhibition at 0.03 μM, %": 18}
{"compound": "COC(=O)c1cccc(NC(=O)c2ccc(Nc3nc(N)c(C(=O)c4c(F)cccc4F)s3)cc2)c1", "CDK4 % Inhibition at 0.03 μM, %": 7}
{"compound": "CCC(C)NC(=O)c1ccc(Nc2nc(N)c(C(=O)c3c(F)cccc3F)s2)cc1 (centres unmarked)", "CDK4 % Inhibition at 0.03 μM, %": 14}
{"compound": "Nc1nc(Nc2ccc(C(=O)NCCOc3ccccc3)cc2)sc1C(=O)c1c(F)cccc1F", "CDK4 % Inhibition at 0.03 μM, %": 43}
{"compound": "CCCC(C)NC(=O)c1ccc(Nc2nc(N)c(C(=O)c3c(F)cccc3F)s2)cc1 (centres unmarked)", "CDK4 % Inhibition at 0.03 μM, %": 21}
{"compound": "CNC(=O)C(C)NC(=O)c1ccc(Nc2nc(N)c(C(=O)c3c(F)cccc3F)s2)cc1 (centres unmarked)", "CDK4 % Inhibition at 0.03 μM, %": 23}
{"compound": "COC(=O)CN(C)C(=O)c1ccc(Nc2nc(N)c(C(=O)c3c(F)cccc3F)s2)cc1", "CDK4 % Inhibition at 0.03 μM, %": 10}
{"compound": "Nc1nc(Nc2ccc(C(=O)N3CC=CC3)cc2)sc1C(=O)c1c(F)cccc1F", "CDK4 % Inhibition at 0.03 μM, %": 18}
{"compound": "CC(CO)NC(=O)c1ccc(Nc2nc(N)c(C(=O)c3c(F)cccc3F)s2)cc1 (centres unmarked) [Example G109]", "CDK4 % Inhibition at 0.03 μM, %": 22}
{"compound": "CN(Cc1ccccc1)C(=O)c1ccc(Nc2nc(N)c(C(=O)c3c(F)cccc3F)s2)cc1", "CDK4 % Inhibition at 0.03 μM, %": 4}
{"compound": "COc1ccc(C(F)(F)F)cc1NC(=O)c1ccc(Nc2nc(N)c(C(=O)c3c(F)cccc3F)s2)cc1", "CDK4 % Inhibition at 0.03 μM, %": "−3"}
{"compound": "Nc1nc(Nc2ccc(C(=O)NCCCN3CCCCC3)cc2)sc1C(=O)c1c(F)cccc1F", "CDK4 % Inhibition at 0.03 μM, %": 41}
{"compound": "CCOC(=O)c1ccc(NC(=O)c2ccc(Nc3nc(N)c(C(=O)c4c(F)cccc4F)s3)cc2)cc1", "CDK4 % Inhibition at 0.03 μM, %": 4}
{"compound": "Nc1nc(Nc2ccc(C(=O)NCC(O)c3ccccc3)cc2)sc1C(=O)c1c(F)cccc1F (centres unmarked)", "CDK4 % Inhibition at 0.03 μM, %": 14}
{"compound": "CCCCC(CC)NC(=O)c1ccc(Nc2nc(N)c(C(=O)c3c(F)cccc3F)s2)cc1 (centres unmarked)", "CDK4 % Inhibition at 0.03 μM, %": 2}
{"compound": "C=C(C)CN(C)C(=O)c1ccc(Nc2nc(N)c(C(=O)c3c(F)cccc3F)s2)cc1", "CDK4 % Inhibition at 0.03 μM, %": 6}
{"compound": "NC(=O)CCNC(=O)c1ccc(Nc2nc(N)c(C(=O)c3c(F)cccc3F)s2)cc1", "CDK4 % Inhibition at 0.03 μM, %": 25}
{"compound": "Nc1nc(Nc2ccc(C(=O)N3CCN(C=O)CC3)cc2)sc1C(=O)c1c(F)cccc1F", "CDK4 % Inhibition at 0.03 μM, %": 13}
{"compound": "CCC(CO)NC(=O)c1ccc(Nc2nc(N)c(C(=O)c3c(F)cccc3F)s2)cc1 (centres unmarked) [Example G183]", "CDK4 % Inhibition at 0.03 μM, %": 38}

* * *

Molecular target: CDK2/cyclin A (Homo sapiens)
Construct: made in house; host or cells: CDK2: insect cells (baculovirus); cyclin A: E. coli
Assay: Inhibition of CDK2/cyclin A retinoblastoma kinase activity (Ki; % inhibition)
Type: biochemical
Details: at 0.03 μM
Experimental: Cyclin-dependent kinase activity was measured by quantifying the enzyme-catalyzed, time-dependent incorporation of radioactive phosphate from [^32P]ATP or [^33P]ATP into a protein substrate. […] The phosphorylated substrate was then captured on a nitrocellulose or phosphocellulose membrane using a 96-well filtration manifold, and unincorporated radioactivity was removed by repeated washing with 0.85% phosphoric acid. Radioactivity was quantified by exposing the dried membranes to a phosphorimager. […]

{"compound": "COC(=O)c1cccc(NC(=O)c2ccc(Nc3nc(N)c(C(=O)c4c(F)cccc4F)s3)cc2)c1 [Example G106]", "units-of-measure": "%", "CDK2 % Inhibition at 0.03 μM": 7}
{"compound": "COc1ccccc1CCNC(=O)c1ccc(Nc2nc(N)c(C(=O)c3c(F)cccc3F)s2)cc1 [Example G185]", "units-of-measure": "%", "CDK2 % Inhibition at 0.03 μM": 7}
{"compound": "Nc1nc(Nc2ccc(C(=O)N3CCCC(O)C3)cc2)sc1C(=O)c1c(F)cccc1F (stereo not drawn) [Example G49]", "units-of-measure": "%", "CDK2 % Inhibition at 0.03 μM": 7}

* * *

Target: human CDK4/cyclin D3 (Homo sapiens, UniProt P11802)
Sequence (P11802 whole entry): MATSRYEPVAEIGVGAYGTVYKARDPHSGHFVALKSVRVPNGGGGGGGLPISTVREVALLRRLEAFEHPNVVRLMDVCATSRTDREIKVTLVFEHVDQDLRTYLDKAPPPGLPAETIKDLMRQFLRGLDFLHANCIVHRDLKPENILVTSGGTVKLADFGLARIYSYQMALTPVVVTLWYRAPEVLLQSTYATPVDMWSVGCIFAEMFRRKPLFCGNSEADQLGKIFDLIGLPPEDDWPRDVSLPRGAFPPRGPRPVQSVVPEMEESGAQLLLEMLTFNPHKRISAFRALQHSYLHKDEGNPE
Sequence (P30281 1-264 partner limits assumed): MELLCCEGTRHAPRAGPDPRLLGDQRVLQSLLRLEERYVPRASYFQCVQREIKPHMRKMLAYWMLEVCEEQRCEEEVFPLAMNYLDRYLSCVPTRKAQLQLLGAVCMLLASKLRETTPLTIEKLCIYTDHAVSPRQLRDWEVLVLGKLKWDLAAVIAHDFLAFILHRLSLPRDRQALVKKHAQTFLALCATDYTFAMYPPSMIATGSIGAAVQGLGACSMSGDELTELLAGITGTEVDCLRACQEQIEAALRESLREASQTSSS
Assay: Inhibition of CDK4/cyclin D retinoblastoma kinase activity (Ki; % inhibition)
Conditions: apparent Ki, CDK4/cyclin D3, Rb substrate
pKi: −log10 of the molar value. Structures can show the parent of a compound that is named as a salt.
# pKi values compiled below

{"compound": "C[C@H](CNC(=O)c1ccc(Nc2nc(N)c(C(=O)c3c(F)cccc3F)s2)cc1)N(C)C", "pKi": 8.00}
{"compound": "Nc1nc(Nc2ccc(C(=O)NCCN3CC=CC3)cc2)sc1C(=O)c1c(F)cccc1F [Example A45, Dihydrochloride Salt]", "pKi": 8.15}
{"compound": "Cc1ccsc1C(=O)c1sc(Nc2ccc(C(=O)NC[C@@H]3CCCN3C)cc2)nc1N", "pKi": 6.89}
{"compound": "CN(C)c1ccc(NC(=O)c2ccc(Nc3nc(N)c(C(=O)c4c(F)cccc4F)s3)cc2)cc1", "pKi": 7.60}
{"compound": "CN(C)CCNC(=O)c1ccc(Nc2nc(N)c(C(=O)C34CC5CC(CC(C5)C3)C4)s2)cc1", "pKi": 6.00}
{"compound": "C[C@@H]1CN(CCNC(=O)c2ccc(Nc3nc(N)c(C(=O)c4c(F)cccc4F)s3)cc2)C[C@H](C)N1", "pKi": 8.00}
{"compound": "Nc1nc(Nc2ccc(C(=O)Nc3ccc(N4CCOCC4)cc3)cc2)sc1C(=O)c1c(F)cccc1F", "pKi": 6.98}
{"compound": "CN(C)C(C)(C)CNC(=O)c1ccc(Nc2nc(N)c(C(=O)c3c(F)cccc3F)s2)cc1", "pKi": 7.70}
{"compound": "CN(C)CCN(C)C(=O)c1ccc(Nc2nc(N)c(C(=O)c3c(F)cccc3F)s2)cc1", "pKi": 7.68}
{"compound": "Nc1nc(Nc2ccc(C(=O)NCCc3ccc(O)cc3)cc2)sc1C(=O)c1c(F)cccc1F", "pKi": 7.85}
{"compound": "CN(C)CCNC(=O)c1ccc(Nc2nc(N)c(C(=O)c3c(F)cccc3F)s2)cc1 [Example A4, Hydrochloride Salt]", "pKi": 7.80}
{"compound": "Nc1nc(Nc2ccc(C(=O)NCCN3CCOCC3)cc2)sc1C(=O)c1c(F)cccc1F", "pKi": 7.57}
{"compound": "Nc1nc(Nc2ccc(C(=O)NCCn3ccnc3)cc2)sc1C(=O)c1c(F)cccc1F [Example A55, Dihydrochloride Salt]", "pKi": 7.77}
{"compound": "COc1cc(Nc2nc(N)c(C(=O)c3c(F)cccc3F)s2)ccc1C(=O)NC(C)CN(C)C (centres unmarked)", "pKi": 7.51}

* * *

System: HCT-116 cell line
Assay: Inhibition of cell growth, MTT tetrazolium salt assay
Type: cell-based
Conditions: HCT-116, at 0.1 μM
# HCT-116 % Inhibition at 0.1 μM values compiled below
experimental-endpoint: HCT-116 % Inhibition at 0.1 μM (%)

{"compound": "Nc1nc(Nc2ccc(C(=O)NCCc3ccccc3Cl)cc2)sc1C(=O)c1c(F)cccc1F [Example G177]", "experimental-endpoint": "HCT-116 % Inhibition at 0.1 μM", "units-of-measure": "%", "value-reported": 24}
{"compound": "CN(C)CCNC(=O)c1ccc(Nc2nc(N)c(C(=O)c3c(F)cccc3F)s2)cc1 [Example G149]", "experimental-endpoint": "HCT-116 % Inhibition at 0.1 μM", "units-of-measure": "%", "value-reported": 10}
{"compound": "CN(C)CCCCCCNC(=O)c1ccc(Nc2nc(N)c(C(=O)c3c(F)cccc3F)s2)cc1 [Example G99]", "experimental-endpoint": "HCT-116 % Inhibition at 0.1 μM", "units-of-measure": "%", "value-reported": 24}
{"compound": "Nc1nc(Nc2ccc(C(=O)NC(CO)c3ccccc3)cc2)sc1C(=O)c1c(F)cccc1F (stereo not drawn) [Example G160]", "experimental-endpoint": "HCT-116 % Inhibition at 0.1 μM", "units-of-measure": "%", "value-reported": 0}
{"compound": "Nc1nc(Nc2ccc(C(=O)NCc3ccc4c(c3)OCO4)cc2)sc1C(=O)c1c(F)cccc1F [Example G172]", "experimental-endpoint": "HCT-116 % Inhibition at 0.1 μM", "units-of-measure": "%", "value-reported": 37}
{"compound": "CC(O)c1ccc(NC(=O)c2ccc(Nc3nc(N)c(C(=O)c4c(F)cccc4F)s3)cc2)cc1 (stereo not drawn) [Example G94]", "experimental-endpoint": "HCT-116 % Inhibition at 0.1 μM", "units-of-measure": "%", "value-reported": 38}
